measured_target: NMAD-1_32–291 (NMAD-1 truncation Δ1–31) (Caenorhabditis elegans, UniProt Q8MNT9)
Construct: residues 32-291, N-terminal flexible region removed
method_summary: binding affinity measurement, method not given
experimental_readout: Kd (nM)
Number only, in nM; omit the unit.

Problem: Can you share its Kd? I mean this molecule: O=C(O)CNC(=O)C(=O)O
Result: 1250

----------
measured_target: NMAD-1 (WT, full-length) (Caenorhabditis elegans)
Construct: recombinant full-length protein
method_summary: isothermal titration calorimetry
experimental_readout: Kd (nM)
Number only, in nM; omit the unit.

Problem: Under NMAD-1 (WT, full-length) (Caenorhabditis elegans): Kd value of O=C(O)CNC(=O)C(=O)O ?
Result: 1070

----------
measured_target: CTD-deleted NMAD-1 (ΔCTD, residues 1–259) (Caenorhabditis elegans)
Construct: residues 1-259, C-terminal domain deleted
Sequence (Q8MNT9 1-259): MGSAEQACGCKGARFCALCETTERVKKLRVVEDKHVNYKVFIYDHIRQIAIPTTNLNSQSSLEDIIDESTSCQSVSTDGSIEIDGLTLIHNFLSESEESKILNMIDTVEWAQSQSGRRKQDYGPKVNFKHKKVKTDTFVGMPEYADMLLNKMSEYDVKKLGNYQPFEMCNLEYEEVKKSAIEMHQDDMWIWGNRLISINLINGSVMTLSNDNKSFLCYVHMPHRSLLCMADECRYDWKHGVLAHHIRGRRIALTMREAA
method_summary: binding affinity measurement, method not given
Source text: binding affinity measurement, method not told in main text on CTD-deleted NMAD-1 (ΔCTD, residues 1–259) | the CTD-deleted NMAD-1 retained the NOG binding affinity
experimental_readout: Kd (µM)
Number only, in µM; omit the unit.

Problem: Can you share its Kd? I mean this compound: O=C(O)CNC(=O)C(=O)O
Result: 1.68

Ref: paper PMC10278977
